Target: Nuclear receptor ROR-gamma (Homo sapiens)
Assay: Agonist activity at RoRc-LBD (unknown origin) expressed in HEK293 cells assessed as transcriptional activity by GAL4 reporter assay
Type: functional, cell-based
Value kind: IC50 (µM)

{"columns": ["Smiles", "IC50 (µM)"],
 "data": [
  ["O=C(Nc1ccc2cnn(S(=O)(=O)c3cccc(C(F)(F)F)c3)c2c1)c1c(F)cccc1C(F)(F)F", 15],
  ["N#Cc1cccc(S(=O)(=O)N2C[C@H](CO)Oc3ccc(NC(=O)c4c(F)cccc4Cl)cc32)c1", 15]
]}

###

pEC50 reference
Biological target: Nuclear receptor ROR-gamma (Homo sapiens, UniProt P51449)
Sequence (P51449 whole entry, the tested form may be a part): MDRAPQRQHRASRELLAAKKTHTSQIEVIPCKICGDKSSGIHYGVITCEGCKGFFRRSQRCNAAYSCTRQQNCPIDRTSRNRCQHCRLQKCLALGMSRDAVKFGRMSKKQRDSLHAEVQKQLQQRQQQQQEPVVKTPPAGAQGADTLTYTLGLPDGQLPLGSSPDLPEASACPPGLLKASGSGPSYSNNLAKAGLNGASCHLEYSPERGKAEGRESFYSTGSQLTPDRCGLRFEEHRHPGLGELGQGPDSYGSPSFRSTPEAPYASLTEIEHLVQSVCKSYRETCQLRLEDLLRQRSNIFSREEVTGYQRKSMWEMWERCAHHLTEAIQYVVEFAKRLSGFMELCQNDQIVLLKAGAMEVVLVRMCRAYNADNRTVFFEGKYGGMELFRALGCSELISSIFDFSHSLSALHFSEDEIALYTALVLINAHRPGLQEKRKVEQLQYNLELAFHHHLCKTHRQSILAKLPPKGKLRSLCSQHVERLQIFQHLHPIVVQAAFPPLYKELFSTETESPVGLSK
Experiment: Inverse agonist activity at human RoRc-LBD expressed in cells assessed as TRAP-220 coactivator peptide recruitment
Assay type: functional, cell-based
pEC50: −log10 of the molar value.

{"columns": ["Smiles", "Target system", "pEC50"],
 "data": [
  ["[2H]C([2H])([2H])N(C(=O)c1c(F)cccc1Cl)c1ccc(-c2cc(C(=O)NCC(C)(C)O)ccc2Cl)cc1N(C([2H])([2H])C([2H])([2H])[2H])C([2H])([2H])C([2H])([2H])[2H]", "Nuclear receptor ROR-gamma (Homo sapiens, UniProt P51449)", "> 7.00"]
]}

Turning to the following compound.
QUERY: Would you mind telling me what pEC50 value was observed for CN(C(=O)c1c(F)cccc1Cl)c1ccc(-c2cc(C(N)=O)ccc2Cl)cc1O[C@@H]1C[C@@H]2C[C@@H]2C1 ?
RESULT: > 7.00
